- targetSystem: CYP11B1 (Homo sapiens, UniProt P15538)
- Construct: Thus, the NCI-H295R cells have Cyp11 B1 (steroid 11 p-hydroxylase); host or cells: NCI-H295R
- Sequence (P15538 25-503): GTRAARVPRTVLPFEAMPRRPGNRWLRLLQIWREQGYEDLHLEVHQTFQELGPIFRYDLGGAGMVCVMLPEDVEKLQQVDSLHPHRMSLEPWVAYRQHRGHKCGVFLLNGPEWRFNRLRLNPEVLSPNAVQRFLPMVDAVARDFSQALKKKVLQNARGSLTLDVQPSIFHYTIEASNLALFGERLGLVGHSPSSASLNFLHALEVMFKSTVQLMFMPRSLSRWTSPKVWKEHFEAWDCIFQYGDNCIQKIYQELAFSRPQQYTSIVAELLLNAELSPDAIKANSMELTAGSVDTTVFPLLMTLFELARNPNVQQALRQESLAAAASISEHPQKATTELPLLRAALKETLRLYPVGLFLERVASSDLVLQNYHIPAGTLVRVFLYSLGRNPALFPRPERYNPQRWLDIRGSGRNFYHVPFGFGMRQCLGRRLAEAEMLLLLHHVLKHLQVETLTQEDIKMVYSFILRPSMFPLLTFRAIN
- assayText: In vitro CYP11B1 inhibition in NCI-H295R cells (steroid release, radioimmunoassay)
- Assay type: cell-based
- testConditions: NCI-H295R; 100 nM; I %: percentage of inhibition
Measured inhibition at 0.1 µM, listed per entry for reference.
Report only the number, with the unit % understood.

The following compounds have reported results that may help.
{"columns": ["compound", "targetSystem", "inhibition at 0.1 µM [%]"],
 "data": [
  ["Cc1noc(-c2cncn2C2c3ccccc3C(=O)OC2(C)C)n1 (racemic) [Entry 4]", "CYP11B1 (Homo sapiens, UniProt P15538)", 100],
  ["CCOCc1cncn1C1c2ccccc2C(=O)OC1(C)C (single isomer, unassigned) [Entry 8]", "CYP11B1 (Homo sapiens, UniProt P15538)", 100],
  ["C=Cc1cncn1C1c2ccccc2C(=O)OC1(C)C (single isomer, unassigned) [Entry 7]", "CYP11B1 (Homo sapiens, UniProt P15538)", 100],
  ["CCOC(=O)c1cncn1C1c2ccccc2C(=O)OC1(C)C (single isomer, unassigned) [Entry 2]", "CYP11B1 (Homo sapiens, UniProt P15538)", 94],
  ["CC1(C)OC(=O)c2ccccc2C1n1cncc1C(=O)Oc1ccccc1 (single isomer, unassigned) [Entry 3]", "CYP11B1 (Homo sapiens, UniProt P15538)", 97],
  ["COC(=O)c1cncn1C1c2ccccc2C(=O)N(C)C1(C)C (racemic) [Entry 11]", "CYP11B1 (Homo sapiens, UniProt P15538)", 95],
  ["CCCCc1cncn1C1c2ccccc2C(=O)OC1(C)C (racemic) [Entry 6]", "CYP11B1 (Homo sapiens, UniProt P15538)", 100],
  ["COC(=O)c1cncn1C1c2ccccc2C(=O)OC1(C)C (single isomer, unassigned) [Entry 1]", "CYP11B1 (Homo sapiens, UniProt P15538)", 100],
  ["COC(=O)c1cncn1C1c2ccccc2C(=O)N(C2CC2)C1(C)C (racemic) [Entry 12]", "CYP11B1 (Homo sapiens, UniProt P15538)", 77],
  ["CCc1cncn1C1c2ccccc2C(=O)OC12CCOCC2 (racemic) [Entry 10]", "CYP11B1 (Homo sapiens, UniProt P15538)", 90]
]}

[ask] Would you mind telling me what inhibition at 0.1 µM value was observed for CCc1cncn1C1c2ccccc2C(=O)OC12CCC2 (single isomer, unassigned) [Entry 9] ?
[reply] 100
